So I've got a bunch of variants here, and I need their polymerase ribozyme fitness (log ratio) values.
B1: TPR t1 (parent)
chain: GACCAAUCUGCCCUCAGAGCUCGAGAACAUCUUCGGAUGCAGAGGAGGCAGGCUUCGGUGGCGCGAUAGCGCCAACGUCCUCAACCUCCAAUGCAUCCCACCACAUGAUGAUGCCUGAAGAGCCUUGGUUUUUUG

Variants of: B1
measurement.notes: polymerase ribozyme fitness, log enrichment relative to wild type (log ratio); higher = more active; in vitro selection for triplet polymerase activity
The answer should be written as a number, with no unit following it.

// field: polymerase ribozyme fitness (log ratio); key: A27U U133A ; value = -3.33

// field: polymerase ribozyme fitness (log ratio); key: G57U C62G U112A ; value = -2.56

// field: polymerase ribozyme fitness (log ratio); key: C8U C56U ; value = 0.434

// field: polymerase ribozyme fitness (log ratio); key: C3A G39U ; value = -2.46

// field: polymerase ribozyme fitness (log ratio); key: G69A U81A C86G ; value = -4.96

// field: polymerase ribozyme fitness (log ratio); key: A37U U54A G61C U109C ; value = -7.14

// field: polymerase ribozyme fitness (log ratio); key: C11U G113U ; value = -2.7

// field: polymerase ribozyme fitness (log ratio); key: G39C G93A ; value = -2.3

// field: polymerase ribozyme fitness (log ratio); key: C12A C49U G69U U109A U116A C123G ; value = -5.67

// field: polymerase ribozyme fitness (log ratio); key: U21A C86G ; value = -0.987

// field: polymerase ribozyme fitness (log ratio); key: C12U G61U A105G ; value = -1.62

// field: polymerase ribozyme fitness (log ratio); key: G48A C62U ; value = -0.525

// field: polymerase ribozyme fitness (log ratio); key: C11G A66G U106A ; value = -0.837

// field: polymerase ribozyme fitness (log ratio); key: C101G G127A ; value = -2.28

// field: polymerase ribozyme fitness (log ratio); key: C15A C49G C98U ; value = -3.16

// field: polymerase ribozyme fitness (log ratio); key: U7G G71U C115A ; value = 1.44

// field: polymerase ribozyme fitness (log ratio); key: C15G A50C ; value = -2.38

// field: polymerase ribozyme fitness (log ratio); key: C13G C53A G69U C79A G120C ; value = -0.403

// field: polymerase ribozyme fitness (log ratio); key: A26U G42C ; value = -6.73

// field: polymerase ribozyme fitness (log ratio); key: A2U C49A ; value = -2.86

// field: polymerase ribozyme fitness (log ratio); key: C3A G57C G71U A90U C114A U132C ; value = -2.98

// field: polymerase ribozyme fitness (log ratio); key: A84C C94G U96C C124U ; value = -0.869

// field: polymerase ribozyme fitness (log ratio); key: A18G G61U C94G G113U ; value = -3.32

// field: polymerase ribozyme fitness (log ratio); key: C3G C34G C76G A91C U109G ; value = -6.42

// field: polymerase ribozyme fitness (log ratio); key: U9G C56A A66C C72U ; value = -1.3

// field: polymerase ribozyme fitness (log ratio); key: A18C U55C C62U ; value = -3.73

// field: polymerase ribozyme fitness (log ratio); key: A29U G47A C86G ; value = -2

// field: polymerase ribozyme fitness (log ratio); key: C53A C56A G77C C89G ; value = -0.889

// field: polymerase ribozyme fitness (log ratio); key: G58A U81A ; value = -0.982

// field: polymerase ribozyme fitness (log ratio); key: A5U U59A U92A U129G ; value = -3.92

// field: polymerase ribozyme fitness (log ratio); key: C72A U131A G135U ; value = 0.0704

// field: polymerase ribozyme fitness (log ratio); key: A24G C124A ; value = 0.386

// field: polymerase ribozyme fitness (log ratio); key: C12U A83U ; value = 0.364

// field: polymerase ribozyme fitness (log ratio); key: C13U A46U U130G ; value = -2

// field: polymerase ribozyme fitness (log ratio); key: G48U U55C ; value = -1.53

// field: polymerase ribozyme fitness (log ratio); key: U9G G69U C73U U106C ; value = 0.373

// field: polymerase ribozyme fitness (log ratio); key: U9A U96G ; value = -0.342
